Target: T1, mouse CNTN4-rabbit Fc (mouse; rabbit, UniProt Q69Z26 19-1000, limits assumed)
T1 construct: not shown: rabbit Fc
T1 sequence (looked up): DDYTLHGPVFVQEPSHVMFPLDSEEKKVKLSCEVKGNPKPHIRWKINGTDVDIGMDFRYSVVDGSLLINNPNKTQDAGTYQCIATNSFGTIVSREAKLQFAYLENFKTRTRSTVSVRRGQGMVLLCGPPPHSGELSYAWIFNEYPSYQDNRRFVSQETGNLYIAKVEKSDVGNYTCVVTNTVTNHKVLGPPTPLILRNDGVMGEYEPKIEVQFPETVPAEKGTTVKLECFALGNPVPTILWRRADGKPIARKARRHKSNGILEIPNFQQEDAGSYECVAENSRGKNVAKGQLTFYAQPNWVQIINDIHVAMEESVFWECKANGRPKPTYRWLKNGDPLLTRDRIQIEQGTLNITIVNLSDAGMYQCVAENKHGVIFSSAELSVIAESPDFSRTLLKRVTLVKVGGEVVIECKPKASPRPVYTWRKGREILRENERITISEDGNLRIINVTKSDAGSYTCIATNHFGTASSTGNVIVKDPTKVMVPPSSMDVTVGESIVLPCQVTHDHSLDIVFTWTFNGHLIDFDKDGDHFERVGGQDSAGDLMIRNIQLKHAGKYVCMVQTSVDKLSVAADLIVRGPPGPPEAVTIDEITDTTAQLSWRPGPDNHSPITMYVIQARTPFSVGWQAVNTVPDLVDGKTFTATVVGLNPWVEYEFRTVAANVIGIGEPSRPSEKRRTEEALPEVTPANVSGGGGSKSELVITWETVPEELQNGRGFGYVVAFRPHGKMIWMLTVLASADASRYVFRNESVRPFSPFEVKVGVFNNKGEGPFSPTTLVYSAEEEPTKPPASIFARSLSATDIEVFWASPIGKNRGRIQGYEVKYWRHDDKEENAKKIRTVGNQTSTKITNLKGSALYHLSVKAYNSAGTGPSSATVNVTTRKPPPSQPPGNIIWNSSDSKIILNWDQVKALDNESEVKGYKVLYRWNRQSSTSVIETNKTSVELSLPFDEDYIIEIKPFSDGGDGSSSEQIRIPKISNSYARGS
Experiment: ELISA, plate coated with antigen-rabbit Fc, anti-human kappa-HRP
measure name: EC50 (nM)
Report as a plain number; the unit nM is understood.

Examples from the recorded data:
[[record]]
binder = "anti-CNTN4 scFv-hCk S138 (scFv, part only; not given: linker and kappa constant region, V domains shown, not shown: another chain or arm of the molecule; a dimerising Fc or GST; small tags and cut ends) VL: ALTQPSSVSANPGETVNITCSGGGSYAGSYYYGWYQQKAPGSAPVTVIYDSTNRPSNIPSRFSGSLSGSTNTLTITGVRAEDEAVYYCGGYDGSTDVFGAGTTLTVL VH: AVTLDESEGGLQTPGGALSLVCKASGFTFSSFNMFWVRQAPGKGLEYVAEISGGGGSTWYAPAVKGRATISRDNGQSTVRLQLNNLRAEDTGTYYCAKSADTWSYGAATIDAWGHGTEVIVSS"
measure_name = "EC50"
meas_value = 1.06

[[record]]
binder = "anti-CNTN4 scFv-hCk S137 (scFv, part only; not given: linker and kappa constant region, not shown: a dimerising Fc or GST) scFv, part: ALTQPSSVSANPGETVKITCSGGSSYGWYQQKSPGSAPVTVIYDNTNRPSNIPSRFSGSKSGSTNTLTITGVQAEDEAVYYCGGYDGSTDAFGAGTTLTVLAVTLDESEGGLQTPGGALSLVCKASGFTFSSFNMFWVRQAPGKGLEYVAEISGGGGSTWYAPAVKGRATISRDNGQSTVRLQLNNLRAEDTGTYYCAKSADTWSYGAATIDAWGHGTEVIVSS"
measure_name = "EC50"
meas_value = 0.52

[[record]]
binder = "anti-CNTN4 scFv-hCk S131 (scFv, part only; not given: linker and kappa constant region, not shown: a dimerising Fc or GST) scFv, part: ALTQPSSVSANLGGTVKITCSGGGSSYYGWYQQKSPGSAPVTLIYQNTNRPSNIPSRFSGSGSGSTGTLTITGVRAEDEAVYYCGGYDGSTDVFGAGTTLTVLAVTLDESEGGLQTPGGALSLVCKASGFTFSSFNMFWVRQAPGKGLEYVAEISGGGGSTWYAPAVKGRATISRDNGQSTVRLQLNNLRAEDTGTYYCAKSADTWSYGAATIDAWGHGTEVIVSS"
measure_name = "EC50"
meas_value = 0.56

[[record]]
binder = "anti-CNTN4 scFv-hCk S46 (scFv, part only; not given: linker and kappa constant region, not shown: a dimerising Fc or GST) scFv, part: ALTQPSSVSANPGETVEITCSGGSGSYGWYQQKAPGSAPVTVIYDNTNRPSNIPSRFSGSGSDSTGTLTITGVQADDKAVYYCGSYDSIEVIFGAGTTLTVLAVTLDESGGGLHTPGGALSLVCKASGFTFSSYGMAWVRQAPGKGLEWVAGITSSGSSAGYGPAVKGRATISRDNGQSTVRLQLNNLRAEDTATYYCAKDGYIYSGADSDSIDAWGHGTEVIVSS"
measure_name = "EC50"
meas_value = 1.2


EC50 for anti-CNTN4 scFv-hCk S1 (scFv, part only; not given: linker and kappa constant region, not shown: a dimerising Fc or GST) scFv, part: ALTQPSSVSANPGETVKITCSGGSSYGWYQQKSPGSAPVTVIYDNTNRPSNIPSRFSGSKSGSTNTLTITGVRAEDEAVYFCGGYDSSIDAFGAGTTLTVLAVTLDESEGGLQTPGGALSLVCKASGFTFSSFNMFWVRQAPGKGLEYVAEISGGGGSTWYAPAVKGRATISRDNGQSTVRLQLNNLRAEDTGTYYCAKSADTWSYGAATIDAWGHGTEVIVSS is 1.53
